# metabolised at 24 h, 5 umol listing for each entry below
Assay: Drug degradation assessed as compound hydrolysis at 5 umol at pH 4.8 at 25 degC after 24 hrs by UV analysis in presence of wheat germ acid phosphatase
Format: physicochemical
Conditions: read-out: Drug degradation
assay.endpoint: metabolised at 24 h, 5 umol

C[C@]12C=CC(=O)C=C1CC[C@@H]1[C@@H]2[C@@H](O)C[C@@]2(C)[C@H]1CC[C@]2(O)C(=O)CO[P+]([O-])(O)OC[C@H]1O[C@@H](n2ccc(N)nc2=O)[C@@H](O)[C@@H]1O (some centres not stated)
86%
C[C@]12C=CC(=O)C=C1CC[C@@H]1[C@@H]2C(=O)C[C@@]2(C)[C@H]1CC[C@]2(O)C(=O)CO[P+]([O-])(O)OC[C@H]1O[C@@H](n2ccc(N)nc2=O)[C@@H](O)[C@@H]1O (some centres not stated)
88%

---

Test: Metabolic stability in baboon plasma assessed as remaining compound level at 5 umol at 37 degC after 24 hrs by UV analysis
Assay type: ADME, cell-free
Settings: papio anubis, read-out: Stability
assay.endpoint: remaining at 24 h, 5 umol (%)

C[C@]12C=CC(=O)C=C1CC[C@@H]1[C@@H]2C(=O)C[C@@]2(C)[C@H]1CC[C@]2(O)C(=O)CO[P+]([O-])(O)OC[C@H]1O[C@@H](n2ccc(N)nc2=O)[C@@H](O)[C@@H]1O (some centres not stated)
74
C[C@]12C=CC(=O)C=C1CC[C@@H]1[C@@H]2[C@@H](O)C[C@@]2(C)[C@H]1CC[C@]2(O)C(=O)CO[P+]([O-])(O)OC[C@H]1O[C@@H](n2ccc(N)nc2=O)[C@@H](O)[C@@H]1O (some centres not stated)
44
